Ref: the NIST ThermoML archive (doi:10.1016/j.fluid.2018.06.013)

RUN_DESCRIPTION: activity coefficient (dimensionless); of the first substance listed, at infinite dilution; xn = mol fraction of the nth substance listed
ASSAY_CONTEXT: 313.15 K; 100 kPa; Liquid; Chromatography; x1 = 0
READOUT_KIND: activity coefficient

# return recorded activity coefficient for entry C#CCCCCCC [1-octyne] + CCCC[N+]1(C)CCCC1.N#CN=C=[N-]
8.87

# return recorded activity coefficient for entry C1=CCCCC1 [cyclohexene] + CCCC[N+]1(C)CCCC1.N#CN=C=[N-]
9.06

# return recorded activity coefficient for entry C1CCOC1 [tetrahydrofuran] + CCCC[N+]1(C)CCCC1.N#CN=C=[N-]
1.34

# return recorded activity coefficient for entry C=CCCCC [hex-1-ene] + CCCC[N+]1(C)CCCC1.N#CN=C=[N-]
21

A = C=C(C)c1ccccc1 [(1-methylethenyl)benzene] + CCCC[N+]1(C)CCCC1.N#CN=C=[N-]
B = CCCC=O [butanal] + CCCC[N+]1(C)CCCC1.N#CN=C=[N-]
Smaller activity coefficient value? Options are A and B Answer by stating the label of the chosen item.
B

a = CCCCCCCC [octane] + CCCC[N+]1(C)CCCC1.N#CN=C=[N-]
b = CCCCCCCCC [nonane] + CCCC[N+]1(C)CCCC1.N#CN=C=[N-]
Endpoint returns the identifier whose activity coefficient is numerically larger, either a or b . Answer by stating the label of the chosen item.
b
(b: 172, a: 119)

I = CCC(=O)CC [pentan-3-one] + CCCC[N+]1(C)CCCC1.N#CN=C=[N-]
II = CCO [ethanol] + CCCC[N+]1(C)CCCC1.N#CN=C=[N-]
III = CC(C)OC(C)C [diisopropyl ether] + CCCC[N+]1(C)CCCC1.N#CN=C=[N-]
IV = CCCC(=O)OC [methyl butanoate] + CCCC[N+]1(C)CCCC1.N#CN=C=[N-]
Form: Sort by [activity coefficient] Order [ ascending ] Answer format: list of labels, ordered as asked.
II, I, IV, III
(II: 0.533, I: 1.7, IV: 2.92, III: 19.4)

----------
RUN_DESCRIPTION: activity coefficient (dimensionless); of the first substance listed, at infinite dilution; xn = mol fraction of the nth substance listed
ASSAY_CONTEXT: 313.15 K; 100 kPa; Liquid; Chromatography; x1 = 0
READOUT_KIND: activity coefficient

Would you please look over these solved cases?
# return recorded activity coefficient for entry CCOC(C)=O [ethyl acetate] + CCCC[N+]1(C)CCCC1.N#CN=C=[N-]
2.35

# return recorded activity coefficient for entry Cc1cccc(C)c1 [1,3-dimethylbenzene] + CCCC[N+]1(C)CCCC1.N#CN=C=[N-]
3.36

# return recorded activity coefficient for entry Cc1ccccc1C [1,2-dimethylbenzene] + CCCC[N+]1(C)CCCC1.N#CN=C=[N-]
2.69

# return recorded activity coefficient for entry CCCC(C)=O [pentan-2-one] + CCCC[N+]1(C)CCCC1.N#CN=C=[N-]
1.73

A = c1ccccc1 [benzene] + CCCC[N+]1(C)CCCC1.N#CN=C=[N-]
B = CCCCO [butan-1-ol] + CCCC[N+]1(C)CCCC1.N#CN=C=[N-]
Endpoint returns the identifier whose activity coefficient is numerically larger, either A or B . Answer by stating the label of the chosen item.
A

P = CCCCCCC [heptane] + CCCC[N+]1(C)CCCC1.N#CN=C=[N-]
Q = C#CCCCC [1-hexyne] + CCCC[N+]1(C)CCCC1.N#CN=C=[N-]
Endpoint returns the identifier whose activity coefficient is numerically larger, either P or Q . Answer by stating the label of the chosen item.
P
